Measured z-score accompanies every entry in the list below.
Assay: changes in parasitized red cell lysis, either direction – P. falciparum Indochina, OD700, 3 h, PSAC antagonist project, primary screen (AID 1156)
Details: P. falciparum-infected erythrocytes, osmotic lysis, higher = more signal, called active from +8 up or from −8 down
Answer with a bare number; do not write a unit.

1. CCOC(=O)C[C@H]1[C@H](OC(=O)Cc2ccc3c(c2)OCO3)[C@@H](NC(=O)c2ccc3ccccc3n2)c2cc(OCCCO)ccc2N1C(=O)c1ccc2ccccc2n1 :: -1.37
2. C=CCOC(=O)[C@@H]1[C@H]2C(=O)O[C@H](c3ccccc3)[C@H](c3ccccc3)N2[C@H](c2ccc(OCCOC(=O)[C@@H]3C[C@@H]4C(=O)N[C@@H](CCCC[N+](C)(C)C)C(=O)N4[C@@H]3c3ccc(O)cc3)cc2)[C@@]12C(=O)Nc1ccc(I)cc12 :: 3.11
3. CC[C@@H]1C=C(C(=O)O)[C@H](c2ccccc2)N1S(=O)(=O)c1ccc(C)cc1 :: -0.393

I am curious: what z-score value has been reported for O=C1C2C=CC(C(O)C3CC=CCC3)N(Nc3ccccc3)C2C(=O)N1c1ccccc1 (stereo unspecified) ? 1.53

And for CC(C)NC(=O)[C@@]1(C)c2ccccc2C(=O)N(Cc2ccc(OC(F)(F)F)cc2)[C@H]1c1ccc(CO)cc1 ? 1.89

CS(=O)(=O)CCOC(=O)C1=CC(c2ccc(CO)cc2)=CC(C2CC2)N(Cc2sc3ccccc3c2Cl)C=C1C(=O)OCCS(C)(=O)=O (stereo unspecified) , same question. 0.239
